What follows is literature data on IC50 for NAD-dependent protein deacetylase sirtuin-3, mitochondrial (Homo sapiens, UniProt Q9NTG7).

Recorded results for 6 molecules are shown here.
COc1ccc(C(=O)Nc2cccc(/C=C/C(=O)N3CCCNCC3)c2)cc1OC: 51 to 100 µM
Cc1ccccc1C(=O)N1CCN(C(=O)c2cccn3c(NCc4ccccc4)c(C(C)C)nc23)CC1: 101 to 150 µM
Nc1ccc(C(=O)Nc2nc3cc4sc(NC(=O)c5ccc(N)cc5)nc4cc3s2)cc1: 51 to 100 µM
O=C(Nc1cccc(/C=C/C(=O)N2CCCNCC2)c1)c1ccc(F)c(C(F)(F)F)c1: 51 to 100 µM
COc1ccccc1C(=O)Nc1cccc(/C=C/C(=O)N2CCCNCC2)c1: 51 to 100 µM
C[C@H](NC(=O)[C@H](CCCCN)NC(=O)CNC(=O)CNC(=O)[C@@H](NC(=O)[C@H](CO)NC(=O)[C@H](CCCCNC(=S)CCC(=O)O)NC(=O)[C@H](CCCNC(=N)N)NC(=O)[C@H](C)NC(=O)[C@@H](NC(=O)[C@H](CCC(N)=O)NC(=O)[C@@H](N)CCCCN)[C@@H](C)O)[C@@H](C)O)C(=O)O: > 100 µM

Item CN(C)c1ccc(-c2nc3ccc(C(=O)NCC(=O)NCC4CC4)cn3c2NC2CCCCC2)cc1 with NAD-dependent protein deacetylase sirtuin-3, mitochondrial (Homo sapiens, UniProt Q9NTG7) - IC50?
< 50 µM
